organism: Rattus norvegicus; assay: Open TG-GATES - Regimen: Single; format: toxicity, organism-based, Sprague-Dawley; design: regimen Single, gender Male, age 6 weeks; conditions: in vivo, po, 0 mg/kg, 3 h, tissue Liver, route gavage, dose level Control
QUANTITY MEASURED: LIVER (g)
One number for each entry, in g.

> print(dat)
                                   compound  quantity.measured  observed.result
1             CC(=O)Nc1ccc2c(c1)Cc1ccccc1-2              LIVER             10.3
2  CC(CCc1ccccc1)NCC(O)c1ccc(O)c(C(N)=O)c1 (configuration not stated)              LIVER              9.4
3  CC(C)Cc1ccc(C(C)C(=O)O)cc1 (configuration not stated)              LIVER              9.3

Lab note: each compound below needs its LIVER filled in.
1. O=C(O)COc1nn(Cc2ccccc2)c2ccccc12
2. CC(=O)N1CCN(c2ccc(OCC3COC(Cn4ccnc4)(c4ccc(Cl)cc4Cl)O3)cc2)CC1 (configuration not stated)

10
9.8

// for each compound below, give its LIVER
1. CCN(CC)N=O
2. CC[C@@H](CO)NCCN[C@@H](CC)CO

1: 9.5; 2: 11.4
